Cited source for all entries: patent US20250144067A1

Test system: NCI-H292 lung cancer cells
EXPERIMENT_NOTES: FDA drug screening, complete media vs cholesterol-free media without statin (TABLE 1)
Assay type: cell-based, human
CONDITION_INFO: NCI-H292 cells, FDA drug library screen, complete media
Where a name gives a salt, the structure may show the parent alone.
EXPERIMENTAL_READOUT: Complete
Give the figure only, with no unit attached.

Request: Provide one value: measured Complete of Cn1c(=O)cc(N2CCC[C@@H](N)C2)n(Cc2ccccc2C#N)c1=O.O=C(O)c1ccccc1 [Alogliptin (Benzoate)]
Result: 0.8074

Request: Provide one value: measured Complete of Nc1ccn([C@@H]2O[C@H](CO)[C@@H](O)[C@@H]2O)c(=O)n1 [Cytarabine (hydrochloride)]
Result: 0.1064

Request: Provide one value: measured Complete of COc1cc2nc(N(C)CCCNC(=O)C3CCCO3)nc(N)c2cc1OC (stereo not drawn)
Result: 0.8372

---

System: NCI-H292 lung cancer cells
EXPERIMENT_NOTES: FDA drug screening, complete media vs cholesterol-free media without statin (TABLE 1)
Assay type: cell-based, human
Counter-ions that a name gives are not always drawn. Peptide text beside a SMILES is read from it.
EXPERIMENTAL_READOUT: Cholesterol-free
Give the figure only, with no unit attached.

Request: Provide one value: measured Cholesterol-free of CCCCCCCCCCCC[N+](C)(C)CCOc1ccccc1.[Br-] [Domiphen (bromide)]
Result: −0.0357

Request: Provide one value: measured Cholesterol-free of O=c1[nH]ccc2c(S(=O)(=O)N3CCCNCC3)cccc12 [Hydroxyfasudil (hydrochloride)]
Result: 1.045

Request: Provide one value: measured Cholesterol-free of O=c1[nH]ccc2c(S(=O)(=O)N3CCCNCC3)cccc12 [Hydroxyfasudil]
Result: 0.944

Request: Provide one value: measured Cholesterol-free of CNCC[C@H](Oc1cccc2ccccc12)c1cccs1 [Duloxetine (hydrochloride)]
Result: 1.331

Request: Provide one value: measured Cholesterol-free of N[C@@H]1C[C@H]1c1ccccc1.N[C@@H]1C[C@H]1c1ccccc1.O=S(=O)(O)O [Tranylcypromine (hemisulfate)]
Result: 1.175

Request: Provide one value: measured Cholesterol-free of OC[C@H]1O[C@@H](n2cnc3c2NC=NC[C@H]3O)C[C@@H]1O
Result: 1.242

Request: Provide one value: measured Cholesterol-free of NCCCC[C@H](NC(=O)[C@@H]1CCCN1C(=O)[C@@H]1CSSC[C@H](N)C(=O)N[C@@H](Cc2ccccc2)C(=O)N[C@@H](Cc2ccccc2)C(=O)N[C@@H](CCC(N)=O)C(=O)N[C@@H](CC(N)=O)C(=O)N1)C(=O)NCC(N)=O [Felypressin] (HELM PEPTIDE1{C.F.F.Q.N.C.P.K.G.[am]}$PEPTIDE1,PEPTIDE1,1:R3-6:R3$$$V2.0)
Result: 0.991

Request: Provide one value: measured Cholesterol-free of C[C@]12CCC(=O)C=C1CC[C@@H]1[C@@H]2[C@@H](O)C[C@@]2(C)[C@H]1CC[C@]2(O)C(=O)COC(=O)CCC1CCCC1 [Hydrocortisone cypionate]
Result: 1.099

Request: Provide one value: measured Cholesterol-free of CN[C@H](CC(C)C)C(=O)N[C@H]1C(=O)N[C@@H](CC(N)=O)C(=O)N[C@H]2C(=O)N[C@H]3C(=O)N[C@H](C(=O)N[C@H](C(=O)O)c4cc(O)cc(O)c4-c4cc3ccc4O)[C@H](O)c3ccc(c(Cl)c3)Oc3cc2cc(c3O[C@@H]2O[C@H](CO)[C@@H](O)[C@H](O)[C@H]2O[C@H]2C[C@](C)(N)[C@H](O)[C@H](C)O2)Oc2ccc(cc2Cl)[C@H]1O [Vancomycin (hydrochloride)]
Result: 0.8305

Request: Provide one value: measured Cholesterol-free of Cc1cc2c(s1)Nc1ccccc1N=C2N1CCN(C)CC1
Result: 0.9635

Request: Provide one value: measured Cholesterol-free of O=C([O-])c1ccccc1O.[Na+] [Sodium Salicylate]
Result: 1.153

Request: Provide one value: measured Cholesterol-free of CN(C)C(=O)Oc1cccc([N+](C)(C)C)c1.[Br-] [Neostigmine (Bromide)]
Result: 1.008

Request: Provide one value: measured Cholesterol-free of CS(=O)(=O)c1cc(F)cc2c3c(n(Cc4ccc(Cl)cc4)c12)[C@@H](CC(=O)O)CC3
Result: 1.338

---

Tested on: NCI-H292 lung cancer cells
EXPERIMENT_NOTES: FDA drug screening, complete media vs cholesterol-free media without statin (TABLE 1)
Format: cell-based, human
CONDITION_INFO: NCI-H292 cells, complete media
Counter-ions that a name gives are not always drawn.
EXPERIMENTAL_READOUT: Complete
Give the figure only, with no unit attached.

Request: Provide one value: measured Complete of COc1ccc(C(C)=O)c(O)c1
Result: 0.7804

Request: Provide one value: measured Complete of CCOc1ccc2nc(S(N)(=O)=O)sc2c1 [Ethoxzolamide]
Result: 0.9909

Request: Provide one value: measured Complete of CO/N=C(\C(=O)N[C@@H]1C(=O)N2C(C(=O)O)=C(CSc3nnnn3C)CS[C@H]12)c1csc(N)n1 [Cefmenoxime (hydrochloride)]
Result: 0.93

Request: Provide one value: measured Complete of Nc1ccncc1N
Result: 1.141

---

System: NCI-H292 lung cancer cells
EXPERIMENT_NOTES: FDA drug screening, complete media vs cholesterol-free media without statin (TABLE 1)
Type: cell-based, human
CONDITION_INFO: Complete minus Cholesterol-free; greater than 0 enhanced anti-cancer activity, about 0 neutral, below 0 antagonist
Structures can show the parent of a compound that is named as a salt.
Assign Difference to each entry below.
Give the figure only, with no unit attached.

Request: Provide one value: measured Difference of CCCCC[C@](C)(O)/C=C/[C@@H]1[C@@H](C/C=C\CCCC(=O)O)[C@@H](O)C[C@H]1O.NC(CO)(CO)CO
Result: −0.14

Request: Provide one value: measured Difference of C[C@@H](O)[C@H]1C(=O)N2C(C(=O)[O-])=C(SC3Cn4cnc[n+]4C3)[C@H](C)[C@H]12 (some centres unmarked)
Result: −0.11

Request: Provide one value: measured Difference of C[N+](C)(C)CCOP(=O)([O-])OC[C@H](O)CO
Result: −0.10

Request: Provide one value: measured Difference of CN[C@H]1CC[C@@H](c2ccc(Cl)c(Cl)c2)c2ccccc21 [Sertraline (hydrochloride)]
Result: −0.11

Request: Provide one value: measured Difference of O=C(CCCCCCC(=O)Nc1ccccc1)NO
Result: −0.17

Request: Provide one value: measured Difference of CC(=O)Nc1c(I)c(NC(C)=O)c(I)c(C(=O)O)c1I
Result: −0.07

Request: Provide one value: measured Difference of Cl.N[C@H]1C(O)O[C@H](CO)[C@@H](O)[C@@H]1O (some centres unmarked) [Glucosamine (hydrochloride)]
Result: −0.17

Request: Provide one value: measured Difference of OC[C@H]1O[C@@H](O[C@@H]2[C@@H](CO)OC(O)(CO)[C@H]2O)[C@H](O)[C@@H](O)[C@H]1O (mixture of isomers)
Result: −0.16

---

Test system: NCI-H292 lung cancer cells
EXPERIMENT_NOTES: FDA drug screening, complete media vs cholesterol-free media with simvastatin (TABLE 2)
Format: cell-based, human
CONDITION_INFO: NCI-H292 cells, drug in cholesterol-free media with simvastatin 0.04 μM
EXPERIMENTAL_READOUT: Cholesterol-free media + simvastatin (0.04 μM)
Give the figure only, with no unit attached.

Request: Provide one value: measured Cholesterol-free media + simvastatin (0.04 μM) of Nc1ncnc2c1ncn2[C@@H]1O[C@H](COP(=O)(O)OP(=O)(O)OP(=O)(O)O)[C@@H](O)[C@H]1O
Result: 1.049

Request: Provide one value: measured Cholesterol-free media + simvastatin (0.04 μM) of CCOc1nc2cccc(C(=O)OC(C)OC(=O)OC3CCCCC3)c2n1Cc1ccc(-c2ccccc2-c2nnn[nH]2)cc1 (stereo not drawn)
Result: 1.18

Request: Provide one value: measured Cholesterol-free media + simvastatin (0.04 μM) of O[C@H]([C@H](O)[C@@H]1CO1)[C@H]1CO1
Result: 0.879

---

Test system: NCI-H292 lung cancer cells
EXPERIMENT_NOTES: FDA drug screening, complete media vs cholesterol-free media with simvastatin (TABLE 2)
Format: cell-based, human
CONDITION_INFO: NCI-H292 cells, complete media; cell growth value in FDA drug screen
Structures can show the parent of a compound that is named as a salt.
For each record, check the reported Complete Media: if it is below 1 write class 1, else write class 0.

Request: API: query returns whether the compound falls strictly under 1 in Complete Media. Query: CCCCOc1cc(C(=O)NCCN(CC)CC)c2ccccc2n1
Result: class 1

Request: API: query returns whether the compound falls strictly under 1 in Complete Media. Query: CO/N=C(\C(=O)N[C@@H]1C(=O)N2C(C(=O)OC(C)OC(C)=O)=C(COC(N)=O)CS[C@H]12)c1ccco1 (stereo partly drawn)
Result: class 0

Request: API: query returns whether the compound falls strictly under 1 in Complete Media. Query: C[C@H](CCC(=O)O)[C@H]1CC[C@H]2[C@@H]3C(=O)C[C@@H]4CC(=O)CC[C@]4(C)[C@H]3CC(=O)[C@]12C [Dehydrocholic acid]
Result: class 1

Request: API: query returns whether the compound falls strictly under 1 in Complete Media. Query: CC/C(=C(/CC)c1ccc(O)cc1)c1ccc(O)cc1
Result: class 0

Request: API: query returns whether the compound falls strictly under 1 in Complete Media. Query: CC(C)(Oc1ccc(C(=O)c2ccc(Cl)cc2)cc1)C(=O)O
Result: class 0

Request: API: query returns whether the compound falls strictly under 1 in Complete Media. Query: O=C(O)c1cccnc1
Result: class 0

Request: API: query returns whether the compound falls strictly under 1 in Complete Media. Query: CCCCCCOC(=O)N=C(N)c1ccc(NCc2nc3cc(C(=O)N(CCC(=O)OCC)c4ccccn4)ccc3n2C)cc1 [Dabigatran etexilate]
Result: class 1

Request: API: query returns whether the compound falls strictly under 1 in Complete Media. Query: COc1c(O)cc2c(c1O)[C@@H]1O[C@H](CO)[C@@H](O)[C@H](O)[C@H]1OC2=O
Result: class 1

Request: API: query returns whether the compound falls strictly under 1 in Complete Media. Query: COCC1=C(C(=O)OC(C)OC(=O)OC(C)C)N2C(=O)[C@@H](NC(=O)/C(=N\OC)c3csc(N)n3)[C@H]2SC1 (stereo partly drawn)
Result: class 0

Request: API: query returns whether the compound falls strictly under 1 in Complete Media. Query: C[C@@H](Oc1cc(-c2cnn(C3CCNCC3)c2)cnc1N)c1c(Cl)ccc(F)c1Cl
Result: class 1

Request: API: query returns whether the compound falls strictly under 1 in Complete Media. Query: COC(=O)Nc1nc2ccc(C(=O)c3ccccc3)cc2[nH]1
Result: class 1

Request: API: query returns whether the compound falls strictly under 1 in Complete Media. Query: CN1CCN(C2=Nc3ccccc3Oc3ccc(Cl)cc32)CC1
Result: class 1

Request: API: query returns whether the compound falls strictly under 1 in Complete Media. Query: CN1C[C@H](CNC(=O)OCc2ccccc2)C[C@@H]2c3cccc4c3c(cn4C)C[C@H]21
Result: class 1

Request: API: query returns whether the compound falls strictly under 1 in Complete Media. Query: C[N+](C)(C)CCO.[Cl-] [Choline (chloride)]
Result: class 1

Request: API: query returns whether the compound falls strictly under 1 in Complete Media. Query: NNc1nncc2ccccc12 [Hydralazine (hydrochloride)]
Result: class 0

Request: API: query returns whether the compound falls strictly under 1 in Complete Media. Query: C[C@@H]1O[C@@H](OC[C@H]2O[C@@H](Oc3c(-c4ccc(OCCO)c(OCCO)c4)oc4cc(OCCO)cc(O)c4c3=O)[C@H](O)[C@@H](O)[C@@H]2O)[C@H](O)[C@H](O)[C@H]1O
Result: class 1

Request: API: query returns whether the compound falls strictly under 1 in Complete Media. Query: O=C(O)CCC(=O)c1ccc(-c2ccccc2)cc1
Result: class 1

Request: API: query returns whether the compound falls strictly under 1 in Complete Media. Query: OC[C@H]1O[C@@H](c2ccc(F)c(Cc3cc4ccccc4s3)c2)[C@H](O)[C@@H](O)[C@@H]1O
Result: class 1

Request: API: query returns whether the compound falls strictly under 1 in Complete Media. Query: CC(C)[N+](C)(CCC(C(N)=O)(c1ccccc1)c1ccccc1)C(C)C.[I-] [Isopropamide (iodide)]
Result: class 0

Request: API: query returns whether the compound falls strictly under 1 in Complete Media. Query: O=C(O)CCNC(=O)c1ccccc1
Result: class 1
